Entries and their measured Blackgrass plant response rating (0-100) follow.
- Test system: blackgrass (Alopecurus myosuroides)
- test_details: Test A preemergence soil spray, visual injury rating 0-100
- Type: in vivo
- condition_summary: 62 g ai/ha, 10 days, 0 = no effect, 100 = complete control
endpoint_label: Blackgrass plant response rating (0-100)

CCOC(=O)C1C=CC(NC(=O)C2(C)CN(c3cc(C)cc(C)c3)C(=O)O2)C1 (centres unmarked) [Compound 116]: 70
COC(=O)COC(=O)C1=CCC(NC(=O)C2(C)CN(c3cc(F)cc(F)c3)C(=O)O2)C1 (centres unmarked) [Compound 107]: 0
CC1(C(=O)NC2CC=C(C(=O)O)C2)CN(c2cc(F)cc(Cl)c2)C(=O)O1 (centres unmarked) [Compound 160]: 0
COC(=O)C1=CCC(NC(=O)C2(C)CN(c3cc(Cl)cc(Cl)c3)C(=O)O2)C1 (centres unmarked) [Compound 149]: 0
CCOC(=O)C1CC(NC(=O)C2(C)CN(c3cc(F)cc(F)c3)C(=O)O2)C1 (centres unmarked) [Compound 125]: 90
COC(=O)C1CC(NC(=O)C2(C)CN(c3cc(F)cc(F)c3)C(=O)O2)C1 (centres unmarked) [Compound 118]: 90
COC(=O)C1C=CC(NC(=O)C2(C)CN(c3cc(Cl)c(F)c(Cl)c3)C(=O)O2)C1 (centres unmarked) [Compound 150]: 50
CC(C)COC(=O)C1=CCC(NC(=O)C2(C)CN(c3cc(Cl)cc(Cl)c3)C(=O)O2)C1 (centres unmarked) [Compound 156]: 30
CC(C)OC(=O)C1=CCC(NC(=O)C2(C)CN(c3cc(F)cc(F)c3)C(=O)O2)C1 (centres unmarked) [Compound 100]: 60
CSCCOC(=O)C1=CCC(NC(=O)C2(C)CN(c3cc(Cl)cc(Cl)c3)C(=O)O2)C1 (centres unmarked) [Compound 146]: 0
COC(=O)C1CC(NC(=O)C2(C(F)(F)F)CN(c3cc(F)cc(F)c3)C(=O)O2)C2CC12 (centres unmarked) [Compound 177]: 90
CC(C)OC(=O)C1=CCC(NC(=O)C2(C)CN(c3cc(Cl)cc(Cl)c3)C(=O)O2)C1 (centres unmarked) [Compound 105]: 0
COC(=O)C1C=CC(NC(=O)C2(C(F)(F)F)CN(c3cc(F)c(F)c(F)c3)C(=O)O2)C1 (mixture of isomers) [Compound 162]: 60
CC1(C(=O)NC2CC=C(C(=O)OCC(F)F)C2)CN(c2cc(F)cc(F)c2)C(=O)O1 (centres unmarked) [Compound 151]: 0
COC(=O)C1C=CC(NC(=O)C2(C)CN(c3cc(C)cc(C)c3)C(=O)O2)C1 (centres unmarked) [Compound 115]: 60
COC(=O)C1CC(NC(=O)C2(C)CN(c3cc(F)cc(F)c3)C(=O)O2)C1 (centres unmarked) [Compound 117]: 60
C=CC1(C(=O)NC2C=CC(C(=O)OC)C2)CN(c2cc(F)cc(F)c2)C(=O)O1 (single isomer, unassigned) [Compound 168]: 0

###

Entries and their measured Wheat plant response rating (0-100) follow.
- System: wheat (Triticum aestivum)
- test_details: Test A preemergence soil spray, visual injury rating 0-100
- Format: in vivo
- condition_summary: 62 g ai/ha, 10 days, 0 = no effect, 100 = complete control
endpoint_label: Wheat plant response rating (0-100)

Cc1cc(C)cc(N2CC(C)(C(=O)NC3C=CC(C(=O)O)C3)OC2=O)c1 (centres unmarked): 90
CC1(C(=O)NC2CC=C(C(=O)OCC(F)(F)F)C2)CN(c2cc(F)cc(Cl)c2)C(=O)O1 (centres unmarked): 90
COC(=O)C1C=CC(NC(=O)C2(C)CN(c3cc(C)cc(C)c3)C(=O)O2)C1 (centres unmarked): 30
COC(=O)C1=CCC(NC(=O)C2(C)CN(c3cc(Cl)cc(Cl)c3)C(=O)O2)C1 (centres unmarked): 70
C=CC1(C(=O)NC2CC(C(=O)OC)C2)CN(c2cc(F)cc(F)c2)C(=O)O1 (centres unmarked) [Compound 175]: 90
CC(C)COC(=O)C1=CCC(NC(=O)C2(C)CN(c3cc(F)cc(F)c3)C(=O)O2)C1 (centres unmarked): 90
COC(=O)C1C=CC(NC(=O)C2(C)CN(c3cc(Cl)c(F)c(Cl)c3)C(=O)O2)C1 (centres unmarked): 80
CC(C)OC(=O)C1=CCC(NC(=O)C2(C)CN(c3cc(Cl)cc(Cl)c3)C(=O)O2)C1 (centres unmarked): 0

###

- System: kochia (Bassia scoparia)
- test_details: Test A preemergence soil spray, visual injury rating 0-100
- Assay type: in vivo
- condition_summary: 16 g ai/ha, 0 to 100 scale, 10 days
Entries and their measured Kochia plant response rating follow.
endpoint_label: Kochia plant response rating

CC(C)OC(=O)C1=CCC(NC(=O)C2(C)CN(c3cc(F)cc(F)c3)C(=O)O2)C1 (centres unmarked): 0
C=CC1(C(=O)NC2C=CC(C(=O)OC)C2)CN(c2cc(F)cc(F)c2)C(=O)O1 (single isomer, unassigned): 70
CCOC(=O)C1=CCC(NC(=O)C2(C)CN(c3cc(F)cc(Cl)c3)C(=O)O2)C1 (centres unmarked): 0
CC1(C(=O)NC2CC=C(C(=O)NS(=O)(=O)c3ccccc3)C2)CN(c2cc(F)cc(F)c2)C(=O)O1 (racemic): 0
CC1(C(=O)NC2CC=C(C(=O)OCC(F)F)C2)CN(c2cc(Cl)cc(Cl)c2)C(=O)O1 (centres unmarked): 20
COC(=O)C1C=CC(NC(=O)C2(C)CN(c3cccc(OC(F)(F)F)c3)C(=O)O2)C1 (mixture of isomers): 0
COC(=O)C1C=CC(NC(=O)C2(C)CN(c3cc(F)cc(F)c3)C(=O)O2)C1 (centres unmarked): 0
CC1(C(=O)NC2CC(C(=O)O)C2)CN(c2cc(F)cc(Cl)c2)C(=O)O1 (racemic): 0
CCOC(=O)C1=CCC(NC(=O)C2(C)CN(c3cc(F)cc(F)c3)C(=O)O2)C1 (centres unmarked) [Compound 112]: 0
Cc1cc(C)cc(N2CC(C)(C(=O)NC3C=CC(C(=O)O)C3)OC2=O)c1 (centres unmarked): 0
CSCCOC(=O)C1CC(NC(=O)C2(C)CN(c3cc(F)cc(F)c3)C(=O)O2)C1 (racemic): 0
CC1(C(=O)NC2CC=C(C(=O)OCC(F)F)C2)CN(c2cc(F)cc(F)c2)C(=O)O1 (centres unmarked): 90
COC(=O)C1CC(NC(=O)C2(C)CN(c3cc(F)cc(F)c3)C(=O)O2)C1 (centres unmarked): 0
CC(C)COC(=O)C1=CCC(NC(=O)C2(C)CN(c3cc(Cl)cc(Cl)c3)C(=O)O2)C1 (centres unmarked): 20
C=CC1(C(=O)NC2CC(C(=O)OC)C2)CN(c2cc(F)cc(F)c2)C(=O)O1 (centres unmarked): 10
CC1(C(=O)NC2CC=C(C(=O)NS(C)(=O)=O)C2)CN(c2cc(F)cc(F)c2)C(=O)O1 (racemic): 0
COC(=O)C1=CCC(NC(=O)C2(C)CN(c3cc(Cl)cc(Cl)c3)C(=O)O2)C1 (centres unmarked): 0

###

- System: barnyardgrass (Echinochloa crus-galli)
- test_details: Test A preemergence soil spray, visual injury rating 0-100
- Assay type: in vivo
- condition_summary: 125 g ai/ha, 10 days, 0 = no effect, 100 = complete control
Entries and their measured Barnyardgrass plant response rating (0 to 100 scale) follow.
endpoint_label: Barnyardgrass plant response rating (0 to 100 scale)

CC1(C(=O)NC2C=CC(C(=O)NS(C)(=O)=O)C2)CN(c2cc(F)cc(F)c2)C(=O)O1 (centres unmarked): 60
CC1(C(=O)NC2CC=C(C(=O)OCC(F)(F)F)C2)CN(c2cc(Cl)cc(Cl)c2)C(=O)O1 (centres unmarked): 90
CSCCOC(=O)C1C=CC(NC(=O)C2(C)CN(c3cc(Cl)cc(Cl)c3)C(=O)O2)C1 (centres unmarked) [Compound 69]: 90
CONC(=O)C1CC(NC(=O)C2(C)CN(c3cc(F)cc(F)c3)C(=O)O2)CO1 (centres unmarked) [Compound 41]: 0
CONC(=O)C1CC(NC(=O)C2(C)CN(c3cc(F)cc(F)c3)C(=O)O2)CO1 (centres unmarked) [Compound 40]: 30
CNC(=O)C1C=CC(NC(=O)C2(C)CN(c3cc(Cl)cc(Cl)c3)C(=O)O2)C1 (centres unmarked): 40
CCOC(=O)C1CCC(NC(=O)C2(C)CN(c3cc(F)cc(Cl)c3)C(=O)O2)C1 (centres unmarked): 80
CC(C)OC(=O)C1=CCC(NC(=O)C2(C)CN(c3cc(Cl)cc(Cl)c3)C(=O)O2)C1 (centres unmarked): 90

###

Entries and their measured Soybean plant response rating (0 to 100 scale) follow.
- Tested on: soybean (Glycine max)
- test_details: Test A postemergence application, visual injury rating 0-100
- Assay type: in vivo
- condition_summary: Postemergence, 16 g ai/ha, greenhouse 10 days; 0 no effect, 100 complete control
endpoint_label: Soybean plant response rating (0 to 100 scale)

COC(=O)COC(=O)C1=CCC(NC(=O)C2(C)CN(c3cc(Cl)cc(Cl)c3)C(=O)O2)C1 (stereo not drawn) [Compound 110]: 30
CC(C)COC(=O)C1=CCC(NC(=O)C2(C)CN(c3cc(F)cc(Cl)c3)C(=O)O2)C1 (stereo not drawn) [Compound 143]: 0
CC(C)OC(=O)C1=CCC(NC(=O)C2(C)CN(c3cc(Cl)cc(Cl)c3)C(=O)O2)C1 (stereo not drawn) [Compound 106]: 0
CSCCOC(=O)C1=CCC(NC(=O)C2(C)CN(c3cc(Cl)cc(Cl)c3)C(=O)O2)C1 (stereo not drawn) [Compound 146]: 0
COC(=O)C1CC(NC(=O)C2(C)CN(c3cc(F)cc(F)c3)C(=O)O2)C1 (stereo not drawn) [Compound 117]: 40
CC1(C(=O)NC2CC=C(C(=O)O)C2)CN(c2cc(Cl)cc(Cl)c2)C(=O)O1 (stereo not drawn) [Compound 157]: 40
COC(=O)C1C=CC(NC(=O)C2(C)CN(c3cc(Cl)c(F)c(Cl)c3)C(=O)O2)C1 (stereo not drawn) [Compound 150]: 60
CC1(C(=O)NC2CC=C(C(=O)OCC(F)(F)F)C2)CN(c2cc(F)cc(Cl)c2)C(=O)O1 (stereo not drawn) [Compound 142]: 0
CC1(C(=O)NC2C=CC(C(=O)O)C2)CN(c2cc(Cl)c(F)c(Cl)c2)C(=O)O1 (stereo not drawn) [Compound 124]: 40

The reported numbers originate from patent US20260285850A1.
